Recorded Cl values for a group of compounds are listed next.
Species on record: Rattus norvegicus
Experiment: Open TG-GATES - Regimen: Single
Format: toxicity, organism-based, Sprague-Dawley
Parameters: regimen Single, gender Male, age 6 weeks
Settings: in vivo, po, 0 mg/kg, 6 h, tissue Plasma, route gavage, dose level Control
API: value field is a number in meq/L; no unit string.

Here are 2 compounds together with their reported answers.
COMPOUND: CC1=C(CC(=O)O)c2cc(F)ccc2/C1=C\c1ccc([S+](C)[O-])cc1 (stereo not drawn)
OBSERVED VALUE: 106.4
//
COMPOUND: CCc1oc2ccccc2c1C(=O)c1cc(Br)c(O)c(Br)c1
OBSERVED VALUE: 104.6

Lab note: measured Cl of OCCOCCN1CCN(C(c2ccccc2)c2ccc(Cl)cc2)CC1 (stereo not drawn) [HYDROXYZINE] was 105.2

###

# MCV values compiled below
Organism: Rattus norvegicus
Assay: Open TG-GATES - Regimen: Single
Type: toxicity, organism-based, Sprague-Dawley
Set-up: regimen Single, gender Male, age 6 weeks
Conditions: in vivo, po, 0 mg/kg, 6 h, tissue Blood, route gavage, dose level Control

Consider the worked cases shown below.
COMPOUND: O=NN(CCCl)C(=O)NC1CCCCC1
OBSERVED VALUE: 66.7 fL
//
COMPOUND: CC1=C(CC(=O)O)c2cc(F)ccc2/C1=C\c1ccc([S+](C)[O-])cc1 (centres undefined)
OBSERVED VALUE: 62.9 fL
//
COMPOUND: CN(C)CCC=C1c2ccccc2COc2ccccc21 [DOXEPIN]
OBSERVED VALUE: 66.3 fL

`CC[C@H]1[C@@H]2C[C@H]3[C@@H]4N(C)c5ccccc5[C@]45C[C@@H]([C@@H]2[C@H]5O)N3[C@@H]1O` yielded MCV of 65.3 fL

###

Species on record: Rattus norvegicus
Assay: Open TG-GATES - Regimen: Daily Repeat
Format: toxicity, organism-based, Sprague-Dawley
Set-up: regimen Daily Repeat, gender Male, age 6 weeks
Conditions: in vivo, po, 0 mg/kg, 72 h, tissue Plasma, route gavage, dose level Control, time 3 day
VALUE KIND: GLC (mg/dL)
Express your answer in mg/dL, writing the number without its unit.

CHEMICAL STRING: CCC1(c2ccccc2)C(=O)NC(=O)NC1=O
VALUE UNITS: mg/dL
GLC: 201.8

CHEMICAL STRING: CC[C@H]1[C@@H]2C[C@H]3[C@@H]4N(C)c5ccccc5[C@]45C[C@@H]([C@@H]2[C@H]5O)N3[C@@H]1O
VALUE UNITS: mg/dL
GLC: 199.8

Pending molecule:
`CCc1oc2ccccc2c1C(=O)c1cc(Br)c(O)c(Br)c1` yielded GLC of 197

###

// values below are reported LDH
Species on record: Rattus norvegicus
Assay: Open TG-GATES - Regimen: Daily Repeat
Type: toxicity, organism-based, Sprague-Dawley
Parameters: regimen Daily Repeat, gender Male, age 6 weeks
Conditions: in vivo, po, 0 mg/kg, […], tissue Plasma, route gavage, dose level Control, time 28 day
Answer in IU/L, number only, no unit symbol.

Previously resolved entries follow.
COMPOUND: CCc1oc2ccccc2c1C(=O)c1cc(Br)c(O)c(Br)c1
LDH (IU/L): 89.8
//
COMPOUND: ClC(Cl)(Cl)Cl [CARBON TETRACHLORIDE]
LDH (IU/L): 211.6
//
COMPOUND: CCC1(c2ccccc2)C(=O)NC(=O)NC1=O
LDH (IU/L): 86

For this compound ( CC1=C(CC(=O)O)c2cc(F)ccc2/C1=C\c1ccc([S+](C)[O-])cc1 (centres undefined) ), measured LDH is 82.8

###

Species on record: Rattus norvegicus
Experiment: Open TG-GATES - Regimen: Daily Repeat
Format: toxicity, organism-based, Sprague-Dawley
Design: regimen Daily Repeat, gender Male, age 6 weeks
Conditions: in vivo, po, 0 mg/kg, […], tissue Blood, route gavage, dose level Control, time 14 day
compounds and their reported Hb
Record the value in g/dL, omitting the unit from your answer.

The following compounds have reported results that may help.
COMPOUND: CCc1oc2ccccc2c1C(=O)c1cc(Br)c(O)c(Br)c1
Hb (g/dL): 14.7
//
COMPOUND: O=NN(CCCl)C(=O)NC1CCCCC1
Hb (g/dL): 14.1
//
COMPOUND: ClC(Cl)(Cl)Cl [CARBON TETRACHLORIDE]
Hb (g/dL): 14.6
//
COMPOUND: CN(C)CCC=C1c2ccccc2COc2ccccc21 [DOXEPIN]
Hb (g/dL): 14

Summary for this compound, CC1=C(CC(=O)O)c2cc(F)ccc2/C1=C\c1ccc([S+](C)[O-])cc1 (stereo not given) : Hb is 15.1

###

Species: Rattus norvegicus
Assay: Open TG-GATES - Regimen: Daily Repeat
Format: toxicity, organism-based, Sprague-Dawley
Parameters: regimen Daily Repeat, gender Male, age 6 weeks
Conditions: in vivo, po, 0 mg/kg, 72 h, tissue Plasma, route gavage, dose level Control, time 3 day
VALUE KIND: TC (mg/dL)
Report the figure in mg/dL without appending any unit label.

Here's what some known entries look like.
MOLECULE: CN(C)CCC=C1c2ccccc2COc2ccccc21 [DOXEPIN]
VALUE KIND: TC
OBSERVED VALUE: 79.6

MOLECULE: O=NN(CCCl)C(=O)NC1CCCCC1
VALUE KIND: TC
OBSERVED VALUE: 74.8

For reference, reported TC for `CCc1oc2ccccc2c1C(=O)c1cc(Br)c(O)c(Br)c1` stands at 82

###

In this section we review reported Hb values for a set of molecules.
Species: Rattus norvegicus
Experiment: Open TG-GATES - Regimen: Single
Format: toxicity, organism-based, Sprague-Dawley
Parameters: regimen Single, gender Male, age 6 weeks
Settings: in vivo, po, 0 mg/kg, 6 h, tissue Blood, route gavage, dose level Control
Numbers only here, please. The scale is g/dL.

MOLECULE: CN(C)C(=N)N=C(N)N [METFORMIN]
VALUE UNITS: g/dL
OBSERVED VALUE: 12.9
--
MOLECULE: O=NN(CCCl)C(=O)NC1CCCCC1 [LOMUSTINE]
VALUE UNITS: g/dL
OBSERVED VALUE: 13.6
--
MOLECULE: OCCOCCN1CCN(C(c2ccccc2)c2ccc(Cl)cc2)CC1 (stereo not drawn) [HYDROXYZINE]
VALUE UNITS: g/dL
OBSERVED VALUE: 13.1

The recorded Hb for CCC1(c2ccccc2)C(=O)NC(=O)NC1=O [PHENOBARBITAL] is 14

Lookup result for CC1=C(CC(=O)O)c2cc(F)ccc2/C1=C\c1ccc([S+](C)[O-])cc1 (stereo not drawn) ; measured Hb: 13.8

Hb reported for this molecule ClC(Cl)(Cl)Cl [CARBON TETRACHLORIDE] : 13

Given item CC[C@H]1[C@@H]2C[C@H]3[C@@H]4N(C)c5ccccc5[C@]45C[C@@H]([C@@H]2[C@H]5O)N3[C@@H]1O [AJMALINE] , the value recorded as its Hb is 13

Sure, the documented Hb for CN(C)CCC=C1c2ccccc2COc2ccccc21 [DOXEPIN] is 13.6

###

Species on record: Rattus norvegicus
Assay: Open TG-GATES - Regimen: Daily Repeat
Format: toxicity, organism-based, Sprague-Dawley
Parameters: regimen Daily Repeat, gender Male, age 6 weeks
Details: in vivo, po, 0 mg/kg, […], tissue Plasma, route gavage, dose level Control, time 28 day
VALUE KIND: BUN (mg/dL)
Entry rule: numbers only, all in mg/dL.

A selection of reference data follows.
MOLECULE: OCCOCCN1CCN(C(c2ccccc2)c2ccc(Cl)cc2)CC1 (centres undefined) [HYDROXYZINE]
VALUE UNITS: mg/dL
BUN: 16.8
--
MOLECULE: CC[C@H]1[C@@H]2C[C@H]3[C@@H]4N(C)c5ccccc5[C@]45C[C@@H]([C@@H]2[C@H]5O)N3[C@@H]1O
VALUE UNITS: mg/dL
BUN: 19.4
--
MOLECULE: ClC(Cl)(Cl)Cl [CARBON TETRACHLORIDE]
VALUE UNITS: mg/dL
BUN: 16.4

Please examine the following record next.
Record summary for `CCc1oc2ccccc2c1C(=O)c1cc(Br)c(O)c(Br)c1` : reported BUN = 19.6

###

Organism: Rattus norvegicus
Experiment: Open TG-GATES - Regimen: Single
Format: toxicity, organism-based, Sprague-Dawley
Set-up: regimen Single, gender Male, age 6 weeks
Details: in vivo, po, 0 mg/kg, 9 h, tissue Liver, route gavage, dose level Control
VALUE KIND: LIVER (g)
Unit g implied. Number only.

These solved cases illustrate the format of a correct answer.
MOLECULE: CC1=C(CC(=O)O)c2cc(F)ccc2/C1=C\c1ccc([S+](C)[O-])cc1 (configuration not stated)
LIVER (g): 7.9
--
MOLECULE: ClC(Cl)(Cl)Cl [CARBON TETRACHLORIDE]
LIVER (g): 8.6

// LIVER lookup, molecule = `O=NN(CCCl)C(=O)NC1CCCCC1` , result: 8.5

Short answer for `CCc1oc2ccccc2c1C(=O)c1cc(Br)c(O)c(Br)c1` : LIVER was 9.1

Lookup result for OCCOCCN1CCN(C(c2ccccc2)c2ccc(Cl)cc2)CC1 (configuration not stated) [HYDROXYZINE] ; measured LIVER: 7.9

Kindly note the recorded LIVER for CC(C)N(CCC(C(N)=O)(c1ccccc1)c1ccccn1)C(C)C (configuration not stated) [DISOPYRAMIDE] , which is 8.8

Form field LIVER, entry `CC[C@H]1[C@@H]2C[C@H]3[C@@H]4N(C)c5ccccc5[C@]45C[C@@H]([C@@H]2[C@H]5O)N3[C@@H]1O` : 8.2

Cited source: ChEMBL document CHEMBL3885861
